- target under test: Dual specificity tyrosine-phosphorylation-regulated kinase 1A (Homo sapiens, UniProt Q13627)
pIC50: −log10 of the molar value.
Listing: pIC50 of selected compounds

>  <smiles input>
O=C(Cn1nc(-c2ccccc2)c(-c2ccccc2)nc1=O)Nc1ccc([N+](=O)[O-])cc1Cl

>  <pIC50>
5.70

$$$$
>  <smiles input>
O=C(Cn1nc(-c2ccccc2)c(-c2ccccc2)nc1=O)Nc1ccc(F)cc1F

>  <pIC50>
< 5.00

$$$$
>  <smiles input>
N#Cc1ccccc1NC(=O)Cn1nc(-c2ccccc2)c(-c2ccccc2)nc1=O

>  <pIC50>
< 5.00

$$$$
>  <smiles input>
O=C(Cn1nc(-c2ccccc2)c(-c2ccccc2)nc1=O)Nc1ccc([N+](=O)[O-])cc1

>  <pIC50>
< 5.00

$$$$
>  <smiles input>
O=C(Cn1nc(-c2ccccc2)c(-c2ccccc2)nc1=O)Nc1ccc(Br)cc1

>  <pIC50>
< 5.00

$$$$
